Entries annotated with measured pIC50
System: CEM cells HIV-1 protection, formazan growth assay
Assay: NCI AIDS Antiviral Assay
Settings: measured here: growth of uninfected CEM cells
pIC50: −log10 of the molar value.
Property Name: pIC50

INSERT INTO measurements (molecule, experimental_result) VALUES
  ('CCOc1cc(/C=C2\N=C(c3ccccc3)OC2=O)ccc1O', '< 4.63'),
  ('COc1cc(/C=C(\C#N)c2ccc(Cl)cc2)ccc1OCc1ccccc1', '< 3.70'),
  ('CCOc1ccccc1NC(=O)CC1C(=O)Nc2ccccc2S1=O (stereo unspecified)', '< 4.42'),
  ('O=C1c2ccccc2C(=O)N1n1c(Cc2ccccc2)n[nH]c1=O', '< 3.70'),
  ('CC(=O)O[C@H]1CCc2c(cc(N)c3c2C(=O)C[C@]2(C)C([C@H](C)CCCC(C)C)CCC32C)C1(C)C (stereo partly specified)', '< 3.70'),
  ('COC(=O)c1cc(C(=CCC[C@H]2CC[C@@]3(C)C(CCC4C3CC[C@@]3(C)C4CC[C@@H]3C(C)CCCC(C)C)C2)c2cc(Cl)c(OC(=O)c3ccccc3)c(C(=O)OC)c2)cc(Cl)c1OC(=O)c1ccccc1 (stereo partly specified)', '< 3.70');
